# TESTED ON: tetanus neurotoxin (TeNT), authentic tetanus holotoxin (Clostridium tetani, UniProt P04958 2-1315)
# Sequence (P04958 2-457 limits assumed, chain 1 of 2): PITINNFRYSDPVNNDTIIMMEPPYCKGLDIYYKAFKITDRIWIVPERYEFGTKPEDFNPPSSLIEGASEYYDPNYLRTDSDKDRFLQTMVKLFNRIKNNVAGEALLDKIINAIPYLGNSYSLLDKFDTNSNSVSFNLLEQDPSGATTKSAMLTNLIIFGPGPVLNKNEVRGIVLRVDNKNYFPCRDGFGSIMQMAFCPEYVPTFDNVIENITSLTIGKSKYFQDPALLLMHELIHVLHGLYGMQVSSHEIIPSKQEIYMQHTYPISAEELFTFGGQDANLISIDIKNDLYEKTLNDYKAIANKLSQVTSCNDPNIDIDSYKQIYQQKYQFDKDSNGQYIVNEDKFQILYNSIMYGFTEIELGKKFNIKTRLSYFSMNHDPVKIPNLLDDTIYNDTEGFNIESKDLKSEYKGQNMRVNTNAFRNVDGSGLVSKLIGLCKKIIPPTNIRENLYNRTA
# Sequence (P04958 458-1315 limits assumed, chain 2 of 2): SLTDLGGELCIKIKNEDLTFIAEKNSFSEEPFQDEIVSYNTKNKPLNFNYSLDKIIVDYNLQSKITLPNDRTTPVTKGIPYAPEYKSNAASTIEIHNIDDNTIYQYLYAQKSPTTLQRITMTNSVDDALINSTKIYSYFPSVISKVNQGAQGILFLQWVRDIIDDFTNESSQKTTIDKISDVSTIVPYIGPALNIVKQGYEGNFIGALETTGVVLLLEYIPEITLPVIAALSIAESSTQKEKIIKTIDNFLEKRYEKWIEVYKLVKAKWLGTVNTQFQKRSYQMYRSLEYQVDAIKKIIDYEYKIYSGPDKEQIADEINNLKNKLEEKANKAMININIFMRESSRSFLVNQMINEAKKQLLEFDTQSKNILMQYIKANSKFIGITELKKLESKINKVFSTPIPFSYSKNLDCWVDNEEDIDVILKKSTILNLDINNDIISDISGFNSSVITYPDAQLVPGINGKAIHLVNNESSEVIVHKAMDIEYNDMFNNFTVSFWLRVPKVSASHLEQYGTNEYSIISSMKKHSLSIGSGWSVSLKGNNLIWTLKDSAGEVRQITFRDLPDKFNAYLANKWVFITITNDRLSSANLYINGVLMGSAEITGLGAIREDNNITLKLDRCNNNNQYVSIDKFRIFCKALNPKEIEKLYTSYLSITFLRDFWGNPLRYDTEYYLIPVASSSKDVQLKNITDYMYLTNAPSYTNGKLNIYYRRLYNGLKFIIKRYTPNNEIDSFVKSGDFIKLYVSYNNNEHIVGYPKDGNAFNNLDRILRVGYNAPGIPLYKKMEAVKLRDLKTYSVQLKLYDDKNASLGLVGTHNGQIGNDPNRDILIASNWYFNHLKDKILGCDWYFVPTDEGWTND
# ASSAY PROCEDURE: competition ELISA on TeNT, binder biotinylated; competitor SVT16L; further: test concentration or dose not given here
MEASURED METRIC: % inhibition of binding (%)
Supply the numeric figure in %, leaving out any unit text.

What measured % inhibition of binding goes with SVT22L (VHH) VHH: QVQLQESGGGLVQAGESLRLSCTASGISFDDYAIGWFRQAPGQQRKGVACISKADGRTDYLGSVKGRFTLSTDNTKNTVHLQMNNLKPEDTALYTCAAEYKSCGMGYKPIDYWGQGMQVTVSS ?
92

What measured % inhibition of binding goes with SVT16L (VHH) VHH: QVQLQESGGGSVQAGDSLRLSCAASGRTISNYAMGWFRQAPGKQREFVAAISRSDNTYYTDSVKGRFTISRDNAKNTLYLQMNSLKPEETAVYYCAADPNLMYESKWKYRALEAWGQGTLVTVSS ?
95
